test system: CCRIS mutagenicity, Ames/micronucleus/aberration tests; assay: CCRIS mutagenicity studies; conditions: Test System: AMES SALMONELLA TYPHIMURIUM; Strain/Indicator: TA100; Metabolic Activation: NONE; Method: STANDARD PLATE
The source made the active and inactive calls. No rule for the calls is given here.
Give one outcome, nothing more. List: active, inactive

Use these answered entries as a reference point.
C=CC1(C)CO1 (configuration not stated) ... inactive
C1O[C@@H]1[C@H]1CO1 ... active
OCCCc1ccccc1 ... inactive
Cc1ccc(N=NN(C)C)cc1 ... inactive
c1ccc(Cc2ccc(OCC3CO3)cc2)cc1 (configuration not stated) ... active
Cc1occc(=O)c1O ... inactive

Problem: What was the test verdict on Clc1cccnc1 ?
Solution: inactive

Problem: Likewise for Cc1cccc2c1ccc1cc(C(C)C)ccc12 ?
Solution: inactive

Problem: Likewise for c1ccc(COC[C@@H]2CO2)cc1 ?
Solution: active
